# Study system: PRMT5:MEP50 protein complex (Homo sapiens)
# Construct: FLAG (N)
# Sequence (O14744 whole entry, species assumed): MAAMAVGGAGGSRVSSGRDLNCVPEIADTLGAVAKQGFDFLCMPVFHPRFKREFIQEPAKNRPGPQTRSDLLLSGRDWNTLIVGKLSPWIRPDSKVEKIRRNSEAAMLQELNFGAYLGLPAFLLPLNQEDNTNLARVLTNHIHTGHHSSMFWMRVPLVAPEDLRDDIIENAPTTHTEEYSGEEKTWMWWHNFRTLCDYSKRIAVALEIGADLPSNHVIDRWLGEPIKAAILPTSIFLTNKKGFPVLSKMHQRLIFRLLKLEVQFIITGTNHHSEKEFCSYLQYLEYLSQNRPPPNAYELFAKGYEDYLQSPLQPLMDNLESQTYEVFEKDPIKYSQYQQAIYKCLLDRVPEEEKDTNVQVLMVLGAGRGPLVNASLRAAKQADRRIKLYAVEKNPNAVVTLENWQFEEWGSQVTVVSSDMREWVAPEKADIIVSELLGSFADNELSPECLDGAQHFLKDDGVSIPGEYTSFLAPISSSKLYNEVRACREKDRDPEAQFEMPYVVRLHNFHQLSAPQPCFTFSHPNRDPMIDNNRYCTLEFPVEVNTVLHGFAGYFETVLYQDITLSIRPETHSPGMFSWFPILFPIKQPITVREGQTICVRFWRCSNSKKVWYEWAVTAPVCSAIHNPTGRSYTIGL
# Sequence (Q9BQA1 whole entry partner, species assumed): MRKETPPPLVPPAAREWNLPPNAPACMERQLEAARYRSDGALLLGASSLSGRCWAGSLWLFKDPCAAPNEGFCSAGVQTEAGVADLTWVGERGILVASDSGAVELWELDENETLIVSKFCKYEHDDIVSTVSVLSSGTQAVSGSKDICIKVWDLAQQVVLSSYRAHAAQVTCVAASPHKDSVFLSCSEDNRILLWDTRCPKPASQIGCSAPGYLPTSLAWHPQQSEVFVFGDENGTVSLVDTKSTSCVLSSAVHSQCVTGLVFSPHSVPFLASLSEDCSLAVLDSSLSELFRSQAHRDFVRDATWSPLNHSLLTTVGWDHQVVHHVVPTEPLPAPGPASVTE
# Method summary: In vitro assay 1: PRMT5 SPA assay ("EAA")
# Condition description: scintillation proximity assay, methylation of biotinylated H4(1-24) peptide, 3H-SAM, 60 min at 22° C.
Below, each entry is listed alongside its reported pIC50.
Interpret pIC50 as the negative base-10 log of the concentration measured in mol/L.

Use the examples below as a reference point.
{"Test smiles": "O=C(Nc1cc(C2CC2)n[nH]1)c1csc(Nc2ccc(Cl)cc2)n1", "Value measured": 6.95}
{"Test smiles": "Cc1cc(NC(=O)c2csc(Nc3ccc(Cl)cc3)n2)no1", "Value measured": 6.01}
{"Test smiles": "CC(C)(C)c1cc(NC(=O)c2csc(NCc3cccc(F)c3)n2)no1", "Value measured": 6.29}
{"Test smiles": "CC(C)(C)c1cc(NC(=O)c2csc(Nc3ccccc3F)n2)no1", "Value measured": 5.60}
{"Test smiles": "CC(C)(C)c1cc(NC(=O)c2csc(Nc3ccccn3)n2)no1", "Value measured": 7.11}

## Task Please indicate recorded pIC50 of `O=C(Nc1cc(-c2ccccc2)[nH]n1)c1csc(Nc2ccc(Cl)cc2)n1` measured with PRMT5:MEP50 protein complex (Homo sapiens).
## Result 7.26

## Task Fetch value of pIC50 on PRMT5:MEP50 protein complex (Homo sapiens) for `O=C(NCCCN1CCc2ccccc2C1)c1csc(Nc2ccc(Cl)cc2)n1` .
## Result 5.11

## Task Enter recorded pIC50 with PRMT5:MEP50 protein complex (Homo sapiens) for `COc1ccc2[nH]c(NC(=O)c3csc(Nc4ccc(Cl)cc4)n3)nc2c1` here.
## Result 6.62

## Task With PRMT5:MEP50 protein complex (Homo sapiens) as the test system, provide measured pIC50 for this molecule: `Cc1cccc(Nc2nc(C(=O)Nc3cc(C(C)(C)C)on3)cs2)c1`
## Result 6.29

## Task Lab note: PRMT5:MEP50 protein complex (Homo sapiens) assay, enter pIC50 for `CC(C)(C)c1cc(NC(=O)c2csc(Nc3ccc(Cl)c(Cl)c3)n2)no1` here
## Result 5.86

## Task Retrieve pIC50 on PRMT5:MEP50 protein complex (Homo sapiens); query `CC(C)(C)c1cc(NC(=O)c2csc(Nc3ccc4ccoc4c3)n2)no1`
## Result 6.46

## Task Look up and report measured pIC50 (PRMT5:MEP50 protein complex (Homo sapiens)) for the following molecule: `Cc1ccc(Nc2nc(C(=O)Nc3cc(C(C)(C)C)on3)cs2)c(F)c1`
## Result 6.37

---

The compounds listed here are annotated with their IC50.
# Study system: PRMT5:MEP50 protein complex (Homo sapiens)
# Construct: FLAG (N)
# Method summary: In vitro assay 1: PRMT5 SPA assay ("EAA")
# Condition description: scintillation proximity assay, methylation of biotinylated H4(1-24) peptide, 3H-SAM, 60 min at 22° C.
# Excerpt: In Vitro Assay 1: PRMT5 SPA Assay (“EAA”) PRMT5 inhibitory activities of the compounds described in the present invention were quantified using a scintillation proximity assay (SPA) which measures methylation by the enzyme of a synthetic, biotinylated peptide corresponding to the N-terminal sequence of Histone H4 (a.a. 1-24). The peptide of sequence […]-K(Btn)-amide is commercially available (e.g. from Biosyntan) and will be herein referred to as H4(1-24). […]
Provide a numeric answer, followed by its unit.

Known results for compounds:
{"Compound": "CC(C)(C)c1cc(NC(=O)c2csc(Nc3cccc(Cl)c3)n2)no1 [Example 48]", "Study system": "PRMT5:MEP50 protein complex (Homo sapiens)", "Measure name": "IC50", "Value measured": "2990 nM"}
{"Compound": "CC(C)(C)c1cc(NC(=O)c2csc(Nc3ccc(Cl)cn3)n2)no1 [Example 35]", "Study system": "PRMT5:MEP50 protein complex (Homo sapiens)", "Measure name": "IC50", "Value measured": "49.6 nM"}
{"Compound": "Cc1ccc(Nc2nc(C(=O)Nc3cc(C(C)(C)C)on3)cs2)cc1Cl [Example 18]", "Study system": "PRMT5:MEP50 protein complex (Homo sapiens)", "Measure name": "IC50", "Value measured": "819 nM"}

## Task GET IC50 where system = PRMT5:MEP50 protein complex (Homo sapiens) and item = Cc1ccc(Nc2nc(C(=O)Nc3cc(C(C)(C)C)on3)cs2)nc1 [Example 34]
## Result 41.8 nM

## Task Please report IC50 with PRMT5:MEP50 protein complex (Homo sapiens) for item CC(C)(C)c1cc(NC(=O)c2csc(Nc3ccc(F)cn3)n2)no1 [Example 6] .
## Result 118 nM
